# assay_protocol: Human liver cytosol intrinsic clearance
# Assay type: in vitro ADME
# experimental_parameters: 1 mg/mL cytosol, 1 μM, replicate 1
Human Liver Cytosol Intrinsic Clearance _1 reference
Just the number in μL/min/mg protein, nothing appended.

smiles_input	experimental_result
CC[C@H]1OC(=O)[C@H](C)C(=O)[C@H](C)[C@@H](O[C@@H]2O[C@H](C)C[C@H](N(C)C)[C@H]2O)[C@](C)(OC)C[C@@H](C)C(=O)[C@H](C)[C@H]2N(C3CN([C@H](C)c4ccnc5ncccc45)C3)C(=O)O[C@]12C	8.2
Nc1nc(OCc2ccccc2)c2nc[nH]c2n1	5.6

IN: Annotate the molecule `CN(C)CCNC(=O)c1cccc2cc3ccccc3nc12` with its measured Human Liver Cytosol Intrinsic Clearance _1.
OUT: 46.2
